# assay.remarks: Ratio of the half-life period of the prodrug and the drug was determined
# Assay type: ADME
Lab note: compare Ratio with 2, writing true (1) if less and false (0) if equal or more.

Examples with answers:
[
  {
    "compound.string": "CN(C(=O)OCc1ccc(OC(=O)N[C@@H](CCC(=O)O)C(=O)O)cc1)c1ccc(N(CCCl)CCCl)cc1",
    "assigned.class": "false (0)"
  },
  {
    "compound.string": "CN(C(=O)OCc1ccc(OC(=O)N[C@@H](CCC(=O)O)C(=O)O)cc1)c1ccc(N(CCI)CCI)cc1",
    "assigned.class": "false (0)"
  },
  {
    "compound.string": "CN(C(=O)OCc1ccc(NC(=O)N[C@@H](CCC(=O)O)C(=O)O)cc1)c1ccc(N(CCBr)CCBr)cc1",
    "assigned.class": "true (1)"
  },
  {
    "compound.string": "O=C(O)CC[C@H](NC(=O)Nc1ccc(COC(=O)Nc2ccccc2N(CCCl)CCCl)cc1)C(=O)O",
    "assigned.class": "false (0)"
  },
  {
    "compound.string": "CN(C(=O)OCc1ccc(OC(=O)N[C@@H](CCC(=O)O)C(=O)O)cc1)c1ccc(N(CCBr)CCBr)cc1",
    "assigned.class": "true (1)"
  }
]

Query block: Please determine if O=C(O)CC[C@H](NC(=O)Nc1ccc(COC(=O)Nc2ccc(N(CCI)CCI)cc2)cc1)C(=O)O is below 2 in terms of Ratio.
Result block: true (1)

Query block: Please indicate whether the reported Ratio of CS(=O)(=O)OCCN(CCCl)c1ccc(C(=O)N[C@@H](CCC(=O)O)C(=O)O)cc1 is strictly below 2.
Result block: false (0)

Query block: Please determine if O=C(O)CC[C@H](NC(=O)Oc1ccc(COC(=O)Nc2ccc(N(CCBr)CCBr)cc2)cc1)C(=O)O is below 2 in terms of Ratio.
Result block: true (1)

Query block: Report whether reported Ratio is lower than 2 (strictly) for CN(C(=O)OCc1ccc(NC(=O)N[C@@H](CCC(=O)O)C(=O)O)cc1)c1ccc(N(CCI)CCI)cc1
Result block: false (0)

Query block: Consider CN(C(=O)OCc1ccc(NC(=O)N[C@@H](CCC(=O)O)C(=O)O)cc1)c1ccc(N(CCCl)CCCl)cc1 . Does its Ratio lie strictly below 2?
Result block: false (0)

Query block: Threshold test, Ratio < 2: O=C(O)CC[C@H](NC(=O)Oc1ccc(COC(=O)Nc2ccccc2N(CCCl)CCCl)cc1)C(=O)O
Result block: false (0)

Query block: Please indicate whether the reported Ratio of O=C(O)CC[C@H](NC(=O)Oc1ccc(COC(=O)Nc2ccccc2N(CCBr)CCBr)cc1)C(=O)O is strictly below 2.
Result block: false (0)

Query block: Quick check: does O=C(O)CC[C@H](NC(=O)Nc1ccc(COC(=O)Nc2ccccc2N(CCBr)CCBr)cc1)C(=O)O have Ratio under 2?
Result block: false (0)

Query block: Given O=C(O)CC[C@H](NC(=O)Nc1ccc(COC(=O)Nc2ccc(N(CCBr)CCBr)cc2)cc1)C(=O)O , is recorded Ratio strictly lower than 2?
Result block: true (1)
